TC50 cytotoxicity values, listed per item
# Test system: DLD1 NRF2-GOF
# PROTOCOL SUMMARY: TC50 cytotoxicity; higher = less toxic
# MEASUREMENT PARAMETERS: 72 h; CellTox Green cytotoxicity

CCNC(=O)C[C@@H]1N=C(c2ccc(Cl)cc2)c2cc(OC)ccc2-n2c(C)nnc21
> 10 µM
CC(C)(O)CNc1nc(Nc2ccnc(C(F)(F)F)c2)nc(-c2cccc(C(F)(F)F)n2)n1 [Enasidenib]
> 10 µM
CCCCCOC(=O)Nc1nc(=O)n([C@@H]2O[C@H](C)[C@@H](O)[C@H]2O)cc1F [Capecitabine]
> 10 µM

I'd like to know its TC50 cytotoxicity. The compound in question is `CN(C)CC#Cc1ccc(OCCCc2sc(N3CCc4cccc(C(=O)Nc5nc6ccccc6s5)c4C3)nc2C(=O)O)c(F)c1`
0.994 µM

What does the record list as TC50 cytotoxicity for `NCC(=O)Nc1ccc(-n2nc(C(F)(F)F)cc2-c2ccc3c(ccc4ccccc43)c2)cc1` ?
> 25 µM

Looking for the measured TC50 cytotoxicity of Cc1cc(C)c(CNC(=O)c2cc(-c3ccc(CN4CCOCC4)cc3)cc3c2cnn3C2CCCC2)c(=O)[nH]1 [EPZ-5687] , can you help?
> 10 µM

Give its TC50 cytotoxicity value. Item: Cc1cc2c(C(C)C)c(O)c(O)c(C=O)c2c(O)c1-c1c(C)cc2c(C(C)C)c(O)c(O)c(C=O)c2c1O [AT 101]
> 100 µM

Recorded TC50 cytotoxicity for CC1(C)CCC(c2ccc(Cl)cc2)=C(CN2CCN(c3ccc(C(=O)NS(=O)(=O)c4ccc(N[C@H](CCN5CCOCC5)CSc5ccccc5)c(S(=O)(=O)C(F)(F)F)c4)cc3)CC2)C1 [Navitoclax] , please?
1.89 µM

Fill in the blank: the reported TC50 cytotoxicity of N#Cc1ccnc(N2C(=O)CC[C@H]2C(=O)N(c2cncc(F)c2)[C@H](C(=O)NC2CC(F)(F)C2)c2ccccc2Cl)c1 [Ivosidenib] is ____.
> 10 µM

Given COc1cc(OC)c(/C=C/S(=O)(=O)Cc2ccc(OC)c(NCC(=O)O)c2)c(OC)c1 [Rigosertib] , state its recorded TC50 cytotoxicity.
0.19 µM

I am curious: what TC50 cytotoxicity value has been reported for `O=C(Nc1ccc2[nH]nc(-c3ccncc3)c2c1)[C@@H]1CCN(CC(=O)N2CCN(c3ccc(-c4ncccn4)cc3)CC2)C1` ?
> 10 µM

----------
Listing: EC50 viability of selected compounds
# Test system: DLD1 NRF2-WT
# MEASUREMENT PARAMETERS: 72 h; CellTiter-Glo viability

// worked examples, EC50 viability included
CN1CCN(C2CCN(C(=O)Nc3cc(Oc4ccc(NC(=O)C5(C(=O)Nc6ccc(F)cc6)CC5)c(F)c4)ccn3)CC2)CC1
> 2500 nM
CC[C@@](C)(Nc1ccnc(-c2c[nH]c3ncccc23)n1)C(=O)NCC(F)(F)F
> 10000 nM

What EC50 viability value was documented for this compound, `CCC/C=C/C=C/C(=O)O[C@H]1/C(=C/C(=O)OC)C[C@H]2C[C@H]([C@@H](C)O)OC(=O)C[C@H](O)C[C@@H]3C[C@H](OC(C)=O)C(C)(C)[C@](O)(C[C@@H]4C/C(=C/C(=O)OC)C[C@H](/C=C/C(C)(C)[C@]1(O)O2)O4)O3` ?
> 100 nM

Origin of values: the supplement of paper PMC7600603
